Tested on: AURKB
reported.conditions: Compound Concentration (nM):1000;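 also: KINOMEscan scanMAX binding as percent activity remaining versus control; lower means stronger binding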
Parameter: Percent Control. Scope: all listed entries.
Numbers only; they are read as %.

Below, 5 compounds whose answers are already recorded.
compound="NS(=O)(=O)c1ccc(N/N=C2\\C(=O)Nc3ccc(Cl)cc32)cc1 [GW280670X]" readout_kind="Percent Control" unit_of_measure=% result=100
compound="CC(C)COC(=O)c1ccc2c(c1)/C(=C/Nc1ccc(S(N)(=O)=O)cc1)C(=O)N2 [GW416981X]" readout_kind="Percent Control" unit_of_measure=% result=65
compound="CN(C)CCNC(=O)Nc1ccc(N(C)c2ccnc(Nc3ccc(CS(C)(=O)=O)cc3)n2)cc1.Cl [GW830900A]" readout_kind="Percent Control" unit_of_measure=% result=4.4
compound="COc1ccc2cc(-c3c(-c4ccncc4)nc(-c4ccc(S(C)(=O)=O)cc4C)n3C)ccc2c1 [SB-633825]" readout_kind="Percent Control" unit_of_measure=% result=66
compound="C/C(Nc1ccc(S(N)(=O)=O)cc1)=C1/C(=O)Nc2ccccc21 [GW335962X]" readout_kind="Percent Control" unit_of_measure=% result=16

Output measured Percent Control for this item: COc1cc(C)c(N(C)C(=O)CN(C)C)cc1Nc1nc(Nc2cccc(F)c2C(N)=O)c2cc[nH]c2n1 [GSK2219385]
93

Check the records and state Percent Control for CCn1c(-c2nonc2N)nc2c(C#CC(C)(C)O)nc(OCCNC)cc21.Cl [GSK949675]
100

Using the record for COc1cc2ncnc(Nc3ccc4c(cnn4Cc4ccccc4)c3)c2cc1OC.Cl [GW282449A] , state its measured Percent Control.
100

---

Tested on: FRK
reported.conditions: Compound Concentration (nM):1000
readout.kind: Percent Control (%)
Record the value in %, omitting the unit from your answer.

molecule="Cl.O=C(Nc1ccc(Oc2ccc3[nH]c(NC(=O)c4ccco4)nc3c2)cc1)Nc1cc(C(F)(F)F)ccc1F [GW683134A]" unit_of_measure=% result=40
molecule="CC1=C(C(=O)Nc2ccc3[nH]ncc3c2)C(c2ccc3ccccc3c2)CC(=O)N1 (stereo not shown) [GSK270822A]" unit_of_measure=% result=61
molecule="C/C(Nc1ccc(S(N)(=O)=O)cc1)=C1/C(=O)Nc2ccccc21 [GW335962X]" unit_of_measure=% result=96
molecule="C[C@@H](Oc1cc(-n2cnc3ccc(OC4CCN(C)CC4)cc32)sc1C(N)=O)c1ccccc1Cl [GSK579289A]" unit_of_measure=% result=93
molecule="COc1cc2ncnc(Nc3ccc4c(cnn4Cc4ccccc4)c3)c2cc1OC.Cl [GW282449A]" unit_of_measure=% result=100
molecule="NS(=O)(=O)c1ccc(N/N=C2\\C(=O)Nc3ccc(-c4cnco4)cc32)cc1 [GW276655]" unit_of_measure=% result=81

Lab note: next molecule to report on.
Answer with reported Percent Control of CN(C)c1cc2c(Nc3ccc4c(cnn4Cc4ccccc4)c3)ncnc2cn1 [GW282974X]
100

---

# key: entry, value: Percent Control
Tested on: MST2
Construct: gene STK3
reported.conditions: Compound Concentration (nM):1000
Numeric only. Scale: %

Annotate the molecule O=C(Nc1n[nH]c2nc(-c3ccc(O)cc3)c(Br)cc12)C1CC1 [SB-725317] with its measured Percent Control.
100

Note Percent Control for the molecule shown: C[C@@H](Oc1cc(-n2cnc3ccc(OC4CCN(C)CC4)cc32)sc1C(N)=O)c1ccccc1Cl [GSK579289A]
24

---

# key: entry, value: Percent Control
Test system: ABL1(F317I)-nonphosphorylated
reported.conditions: Compound Concentration (nM):1000
The response must be a number in % with no trailing unit.

Take a look at these entries with their results.
compound="COc1ccc2c(-c3ccnc(Nc4cccc(OC(F)(F)F)c4)n3)cnn2n1 [GW810372X]" readout_kind="Percent Control" result=100
compound="CCS(=O)(=O)c1ccc(OC)c(Nc2ncc(-c3cccc(F)c3)o2)c1 [GW621970X]" readout_kind="Percent Control" result=98
compound="COC(=O)Nc1nc2ccc(Oc3ccc(NC(=O)Nc4cc(C(F)(F)F)ccc4F)cc3)cc2s1.Cl [GW693917A]" readout_kind="Percent Control" result=4.5
compound="NS(=O)(=O)c1ccc(Nc2ncc(-c3ccccc3)o2)cc1 [GW572399X]" readout_kind="Percent Control" result=99
compound="COc1ccc2[nH]c3c4[nH]c5ccc(OC)cc5c4c4c(c3c2c1)C(=O)NC4=O [GW296115X]" readout_kind="Percent Control" result=87
compound="CC1=C(C(=O)Nc2ccc3[nH]ncc3c2)C(c2ccc3ccccc3c2)CC(=O)N1 (centres unmarked) [GSK270822A]" readout_kind="Percent Control" result=100
compound=CCc1ccc(Oc2nccc(-c3c(-c4ccc(F)cc4)ncn3C3CCNCC3)n2)cc1 readout_kind="Percent Control" result=87

Look up and state reported Percent Control for O=C1Nc2ccc(C(=O)c3ccco3)cc2C1=Cc1cc(Cl)c(O)c(Cl)c1 [GW406108X]
89

---

Each entry below carries its recorded Percent Control.
System: GSK3B
reported.conditions: Compound Concentration (nM):1000
Report as a plain number; the unit % is understood.

Solved cases below.
compound="O=C(Nc1n[nH]c2nc(-c3ccc(O)cc3)c(Br)cc12)C1CC1 [SB-725317]" readout_kind="Percent Control" unit_of_measure=% result=0.5
compound="C/C(Nc1ccc(S(N)(=O)=O)cc1)=C1/C(=O)Nc2ccccc21 [GW335962X]" readout_kind="Percent Control" unit_of_measure=% result=97
compound="CN(C)CCNC(=O)Nc1ccc(N(C)c2ccnc(Nc3ccc(CS(C)(=O)=O)cc3)n2)cc1.Cl [GW830900A]" readout_kind="Percent Control" unit_of_measure=% result=85

State its Percent Control for this compound: COc1ccc(COc2ccc(Cc3cnc(N)nc3N)cc2OC)cc1 [GW632580X]
95

Input Cl.O=C(Nc1ccc(Oc2ccc3[nH]c(NC(=O)c4ccccc4)nc3c2)cc1)Nc1cc(C(F)(F)F)ccc1F [GW709042A] , output reported Percent Control.
99

Answer with the recorded Percent Control for the compound listed here: COc1ccc2c(-c3ccnc(Nc4cccc(OC(F)(F)F)c4)n3)cnn2n1 [GW810372X]
97

State its Percent Control: COc1cc2ncn(-c3cc(O[C@H](C)c4ccccc4Cl)c(C(N)=O)s3)c2cc1OC [GSK237701A]
97

Read the entry CC1=C(C(=O)Nc2ccc3[nH]ncc3c2)C(c2ccc(Cl)c(Cl)c2)CC(=O)N1 (centres unmarked) [GSK299115A] and write its reported Percent Control.
100

---

System: PIK3CA(C420R)
reported.conditions: Compound Concentration (nM):1000
readout.kind: Percent Control (%)
Write it as a number; the unit % goes unstated.

Some solved entries appear below for comparison.
molecule="COc1ccc(COc2ccc(Cc3cnc(N)nc3N)cc2OC)cc1 [GW632580X]" result=100
molecule="COc1ccccc1-c1cc(/C=C2\\C(=O)Nc3ncc(Br)cc32)cc(Br)c1O [GW442130X]" result=78
molecule="Cl.O=S1CCN(Cc2ccc(-c3ccc4ncnc(Nc5ccc(OCc6ccccc6)c(F)c5)c4c3)o2)CC1 [GW576924A]" result=100

Tell me Percent Control reported for COc1cc2ncnc(Nc3ccc4c(cnn4Cc4ccccc4)c3)c2cc1OC.Cl [GW282449A]
100

---

System: MRCKB
Construct: gene CDC42BPB
reported.conditions: Compound Concentration (nM):1000
readout.kind: Percent Control (%)
Give just the numeric value; % need not be written.

Past entries and their recorded results:
molecule="Nc1ncnc2occ(-c3ccc(NC(=O)Nc4cc(C(F)(F)F)ccc4F)cc3)c12 [GW770249X]" result=100
molecule="COc1cccc(-n2ncc3c(N/N=C/c4ccncc4)ncnc32)c1 [GW784752X]" result=100
molecule="COc1ccc(COc2ccc(Cc3cnc(N)nc3N)cc2OC)cc1 [GW632580X]" result=100

Now take the following molecule into account.
Find the measured Percent Control of Cl.O=C(Nc1ccc(Oc2ccc3[nH]c(NC(=O)c4ccccc4)nc3c2)cc1)Nc1cc(C(F)(F)F)ccc1F [GW709042A] with MRCKB as test system.
90

---

Test system: KIT
reported.conditions: Compound Concentration (nM):1000
// Percent Control lookup, one value per entry

Known results for compounds:
compound="CCc1ccc(Oc2nccc(-c3c(-c4ccc(F)cc4)ncn3C3CCNCC3)n2)cc1 [SB-242719]" result=83%
compound="Cl.O=S1CCN(Cc2ccc(-c3ccc4ncnc(Nc5ccc(OCc6ccccc6)c(F)c5)c4c3)o2)CC1 [GW576924A]" result=100%
compound="O=C(Nc1n[nH]c2nc(-c3ccc(O)cc3)c(Br)cc12)C1CC1 [SB-725317]" result=84%
compound="CC(C)COC(=O)c1ccc2c(c1)/C(=C/Nc1ccc(S(N)(=O)=O)cc1)C(=O)N2 [GW416981X]" result=100%

Would you kindly look at the next entry?
Would you please give the reported Percent Control of Cl.c1ccc(Cc2nc3ccc(Nc4ncnc5ccccc45)cc3[nH]2)cc1 [GR269666A] with KIT?
94%
